Hello, the source for this data is ChEMBL document CHEMBL1136575, in case you need it.

test: Cmax value was determined after peroral administration of 20 mg/kg in rat; assay type: ADME, organism-based; design: dose 20 mg/kg, route oral; conditions: in vivo, po
Quantity Measured: Cmax (µM)
Quick reminder: number only, in µM, skip the unit.

Solved entries (count: 4):
{"Compound": "CS(=O)(=O)c1ccc(-c2cnn(Cc3ccccc3)c(=O)c2-c2ccccc2)cc1", "Unit Label": "µM", "Result Number": 1}
{"Compound": "C[C@@H]1C[C@H]1Cn1ncc(-c2ccc(S(C)(=O)=O)cc2)c(-c2ccc(F)cc2)c1=O", "Unit Label": "µM", "Result Number": 4.8}
{"Compound": "CC(C)Oc1c(-c2ccc(S(C)(=O)=O)cc2)cnn(Cc2ccccc2)c1=O", "Unit Label": "µM", "Result Number": 2.8}
{"Compound": "C[C@H]1C[C@@H]1Cn1ncc(-c2ccc(S(C)(=O)=O)cc2)c(-c2ccc(F)cc2)c1=O", "Unit Label": "µM", "Result Number": 16}

Then this compound:
stdin: Look up Cmax: CC(C1CC1)n1ncc(-c2ccc(S(C)(=O)=O)cc2)c(-c2ccc(F)cc2)c1=O (racemic)
stdout: 13
